The measured values listed here are drawn from patent US10196364B2.

- TARGET_SYSTEM: human Nav1.7 (Homo sapiens)
- Sequence (Q15858 1-1977 isoform Q15858-3): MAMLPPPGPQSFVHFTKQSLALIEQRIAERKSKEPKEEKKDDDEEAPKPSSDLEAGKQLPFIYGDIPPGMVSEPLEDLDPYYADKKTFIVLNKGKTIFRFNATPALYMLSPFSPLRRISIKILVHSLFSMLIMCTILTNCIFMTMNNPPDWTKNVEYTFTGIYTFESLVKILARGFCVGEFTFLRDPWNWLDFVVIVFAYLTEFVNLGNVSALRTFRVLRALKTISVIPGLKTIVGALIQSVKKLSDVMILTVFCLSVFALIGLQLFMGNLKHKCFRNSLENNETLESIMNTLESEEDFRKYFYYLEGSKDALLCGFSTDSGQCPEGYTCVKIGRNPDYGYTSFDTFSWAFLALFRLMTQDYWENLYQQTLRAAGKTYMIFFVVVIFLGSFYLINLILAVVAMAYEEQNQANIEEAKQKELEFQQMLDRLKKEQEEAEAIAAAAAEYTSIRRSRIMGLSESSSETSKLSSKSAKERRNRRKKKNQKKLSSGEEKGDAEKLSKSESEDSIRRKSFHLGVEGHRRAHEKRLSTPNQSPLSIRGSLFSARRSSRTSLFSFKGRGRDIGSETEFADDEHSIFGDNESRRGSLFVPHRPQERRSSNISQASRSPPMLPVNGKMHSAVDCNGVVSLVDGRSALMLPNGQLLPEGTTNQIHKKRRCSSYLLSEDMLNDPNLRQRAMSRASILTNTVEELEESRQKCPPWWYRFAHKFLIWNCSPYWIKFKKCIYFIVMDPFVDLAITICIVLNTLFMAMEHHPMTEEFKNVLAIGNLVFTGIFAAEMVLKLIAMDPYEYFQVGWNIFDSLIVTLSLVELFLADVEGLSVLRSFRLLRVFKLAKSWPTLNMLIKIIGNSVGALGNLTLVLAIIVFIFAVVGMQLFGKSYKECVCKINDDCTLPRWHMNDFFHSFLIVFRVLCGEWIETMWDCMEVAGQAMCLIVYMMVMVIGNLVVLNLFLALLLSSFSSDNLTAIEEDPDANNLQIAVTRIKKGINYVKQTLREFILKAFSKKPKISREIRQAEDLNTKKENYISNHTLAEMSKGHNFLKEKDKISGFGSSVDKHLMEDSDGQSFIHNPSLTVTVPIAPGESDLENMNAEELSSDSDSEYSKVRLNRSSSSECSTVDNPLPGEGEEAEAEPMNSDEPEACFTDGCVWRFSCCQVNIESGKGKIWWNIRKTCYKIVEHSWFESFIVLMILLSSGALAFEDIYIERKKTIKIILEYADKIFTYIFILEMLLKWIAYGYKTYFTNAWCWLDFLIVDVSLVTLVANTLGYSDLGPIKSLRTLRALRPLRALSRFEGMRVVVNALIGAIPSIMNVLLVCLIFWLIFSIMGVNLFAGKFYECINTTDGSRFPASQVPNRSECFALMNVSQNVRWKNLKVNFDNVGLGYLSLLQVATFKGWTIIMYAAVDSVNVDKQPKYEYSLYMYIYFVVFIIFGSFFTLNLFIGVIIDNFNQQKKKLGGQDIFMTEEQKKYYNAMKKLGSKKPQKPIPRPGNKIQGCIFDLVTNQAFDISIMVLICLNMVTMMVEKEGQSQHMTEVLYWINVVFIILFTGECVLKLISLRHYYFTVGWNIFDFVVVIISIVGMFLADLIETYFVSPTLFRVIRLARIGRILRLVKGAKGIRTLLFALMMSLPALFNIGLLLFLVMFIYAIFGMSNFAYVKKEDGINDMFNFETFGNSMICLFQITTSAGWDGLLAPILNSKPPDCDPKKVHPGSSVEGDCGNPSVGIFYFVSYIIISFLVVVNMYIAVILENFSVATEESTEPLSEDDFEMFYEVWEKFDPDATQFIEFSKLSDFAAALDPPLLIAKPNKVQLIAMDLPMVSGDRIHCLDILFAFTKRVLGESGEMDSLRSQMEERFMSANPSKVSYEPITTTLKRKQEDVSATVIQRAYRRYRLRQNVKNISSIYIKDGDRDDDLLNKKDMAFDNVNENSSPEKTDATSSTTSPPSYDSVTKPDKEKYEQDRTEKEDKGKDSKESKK
- ASSAY_REMARKS: FLIPR sodium dye assay (CoroNa Green AM Na+ dye, primary fluorescence assay) in recombinant Nav1.7/HEK293 cells
- Type: cell-based
METRIC: IC50 (nM)

>>> print(df.to_string())
                                        smi                target_system  metric  units  measured_value
0  NC(=O)c1cc(N[C@@H]2CCNC2=O)nc(-c2ccc(Oc3ccc(C(F)(F)F)cn3)cc2)n1  human Nav1.7 (Homo sapiens)    IC50     nM             320

====

- TARGET_SYSTEM: UniProt:Q15858
- ASSAY_REMARKS: Electrophysiology (EP) whole-cell patch clamp assay in hNav1.7 expressing HEK-293 cells
- Format: cell-based
- MEASUREMENT_CONTEXT: Table 6; affinity for inactivated channels; read-out: Nav1.7 Activity (μM) EP assay Ki
Reported Ki by item:
METRIC: Ki (µM)

>>> print(df.to_string())
                                   molecule  units  measured_value
0  NC(=O)c1cc(N[C@H]2CCNC2=O)nc(-c2ccc(Oc3ccc(Cl)cn3)cc2)n1 [compound 133]     µM            0.57
1  NC(=O)c1cc(N[C@H]2CCNC2=O)nc(-c2ccc(Oc3ccc(C4CC4)cn3)cc2)n1 [compound 142]     µM             0.3
2  NC(=O)c1cc(N[C@H]2CCNC2=O)nc(-c2ccc(Oc3cccc(F)n3)cc2)n1 [compound 134]     µM            0.82
3  NC(=O)c1cc(N[C@H]2CCNC2=O)nc(N2C3CCC2CC(Oc2ccc(C(F)(F)F)cn2)C3)n1 (some centres unmarked) [compound 140]     µM            2.55
4  NC(=O)c1cc(N[C@H]2CCNC2=O)nc(-c2ccc(Oc3cc(Cl)ccc3F)cc2)n1 [compound 117]     µM           0.027
5  C[C@H](Oc1cc(C(N)=O)nc(-c2ccc(Oc3ccc(C(F)(F)F)cn3)cc2)n1)C(N)=O [compound 146]     µM            1.25
6  NC(=O)c1cc(N[C@H]2CCNC2=O)nc(N2[C@@H]3CC[C@H]2C[C@H](Oc2ccc(C(F)(F)F)cn2)C3)n1 [Cpd No. 183]     µM            0.49
7  NC(=O)c1cc(N[C@H]2CCNC2=O)nc(-c2ccc(Cc3ccc(C(F)(F)F)cn3)cc2)n1 [Cpd No. 190]     µM            0.29

====

- TARGET_SYSTEM: human Nav1.7 (Homo sapiens)
- ASSAY_REMARKS: FLIPR membrane potential dye assay (alternative fluorescence assay) in Nav1.7 expressing cells
- Assay type: cell-based
- MEASUREMENT_CONTEXT: Table 7
Reported IC50 by item:
METRIC: IC50

>>> print(df.to_string())
                                         smi  measured_value
 0  CC(=O)c1ccc(Oc2ccc(-c3nc(N[C@H]4CCNC4=O)cc(C(N)=O)n3)cc2)nc1         > 20 µM
 1  C[C@H](Nc1cc(C(N)=O)nc(-c2ccc(N3CCOc4cc(F)ccc43)cc2)n1)C(N)=O         3.78 µM
 2  NC(=O)c1cc(O[C@H]2CCNC2=O)nc(-c2ccc(Cc3ccc(C(F)(F)F)cn3)cc2)n1         0.58 µM
 3  CCN(CC)Cc1cc(C(F)(F)F)ccc1Oc1ccc(-c2nc(O[C@H]3CCNC3=O)cc(C(N)=O)n2)cc1         1.21 µM
 4  NC(=O)c1cc(N[C@H]2CCNC2=O)nc(-c2ccc(N3Cc4cc(Cl)ccc4OCC3=O)cc2)n1         > 20 µM
 5  C[C@H](Nc1cc(C(N)=O)nc(N2CC[C@@H](Oc3ccc(C(F)(F)F)cc3)C2)n1)C(N)=O         3.23 µM
 6  NC(=O)c1cc(O[C@H]2CCNC2=O)nc(-c2ccc(Oc3ccc(C(F)(F)F)cc3)cc2CN2CCOCC2)n1     10 to 20 µM
 7  NC(=O)c1cc(O[C@H]2CCNC2=O)nc(-c2ccc(Oc3ccc(C4CC4)cn3)cc2)n1          1.2 µM
 8  NC(=O)c1cc(O[C@H]2CCNC2=O)nc(-c2ccc(Oc3ccc(C(F)(F)F)cc3)cc2CN2CCCCC2)n1         > 20 µM
 9  Cn1cc(COc2ccc(-c3nc(N[C@H]4CCNC4=O)cc(C(N)=O)n3)cc2)cn1     10 to 20 µM
10  C[C@H](Nc1cc(C(N)=O)nc(-c2ccc(N3Cc4cc(Cl)ccc4OCC3=O)cc2)n1)C(N)=O         > 20 µM
11  CCN(CC)Cc1cc(C(F)(F)F)ccc1Oc1ccc(-c2nc(N[C@H](C)C(N)=O)cc(C(N)=O)n2)cc1         7.35 µM
12  NC(=O)c1cc(O[C@H]2CCNC2=O)nc(-c2ccc(Oc3ccc(C(F)(F)F)cn3)cc2)n1         0.55 µM
